Assay: qHTS assay to identify small molecule antagonists of the sonic hedgehog signaling (Shh) pathway - cell viability counter screen (AID 1259367); also: % is scaled to controls: 0 for no effect and ±100 for the full control effect; nearly all actives have a fitted effect of over 55% in size
Settings: NIH/3T3 Gli1-Luc viability, CellTiter-Fluor, 24 h; series mostly up to 92.4 µM
Results filed as inconclusive are left out. The source made the active and inactive calls. Calls follow the shape of the dose curve; as a rule, active = well fitted cell-killing curve with a large enough effect in the repeat runs; inconclusive = weak or mixed curves, or effect the other way; inactive = no such curve, though single readings can be large or run the other way.
Recorded viability change, negative = cytotoxic, one value per entry.

O=C(O)c1ccc2c(c1)nc(C(=O)NC1CCN(C3CC3)CC1)n2Cc1cc(-c2ccc(Cl)s2)on1: 0.451% [at 19 µM] (inactive)

Find the recorded viability change, negative = cytotoxic belonging to CCCCCCCCCCCCCCCCCCCl and report it.
0.635% [at 8.39 µM] (inactive)

Moving on to CC1=CC(=C(c2ccc(N)cc2)c2ccc(N)cc2)C=CC1=N
-16.1% [at 8.39 µM] (inactive)

Moving on to c1ccc(-c2ccc(-c3ccccc3)cc2)cc1
-1.08% [at 19 µM] (inactive)

====

Test: qHTS assay to identify small molecule antagonists of the progesterone receptor (PR) signaling pathway - cell viability counter screen (AID 1346798);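 also: HEK293T PR-UAS-bla cells stimulated with the agonist R5020; % is scaled to controls: 0 for no effect and ±100 for the full control effect; nearly all actives have a fitted effect of over 50% in size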
Conditions: PR-UAS-bla HEK293T viability, CellTiter-Glo luminescence, 16 h; series mostly up to 92.4 µM
Results filed as inconclusive are left out. The source made the active and inactive calls. Calls come from the whole dose curve; as a rule, active = well fitted cell-killing curve with a large enough effect in the repeat runs; inconclusive = weak or mixed curves, or effect the other way; inactive = no such curve, though single readings can be large or run the other way.
assay-readout: outcome

Sample records with outcome:
CC(=O)c1cccnc1: inactive
CCCCCCCCCCCCCCCCC(=O)O: inactive
CCCCCO: inactive
C=CC(=O)OCCCCCCCCCC: inactive
CC(C)Cc1nccs1: inactive

Find the recorded outcome belonging to COc1ccc(C(=O)Nc2ccccc2)cc1[N+](=O)[O-] and report it.
inactive

Moving on to S=c1[nH][nH]c(=S)s1
inactive

Moving on to O=C(Cl)c1ccc(F)c(Cl)c1
inactive

Moving on to CC1(C)C(=O)NC(=O)N1CO
inactive

Moving on to Cc1c(Cl)cccc1Nc1ccccc1C(=O)O
inactive

Moving on to Clc1cccc(C(c2ccc3nc[nH]c3c2)n2ccnc2)c1 (stereo not given)
inactive

Moving on to CCOc1ccc2c(c1)C(C)CC(C)(C)N2 (stereo not given)
inactive

Moving on to Cc1ccccc1CCO
inactive

Moving on to CC(=O)S[C@H](C(=O)N[C@H]1Cc2ccccc2[C@H]2CCC[C@@H](C(=O)O)N2C1=O)C(C)C
inactive

Moving on to Oc1ccc(Oc2ccccc2)cc1
inactive

====

Assay: qHTS assay to identify small molecule antagonists of the estrogen receptor alpha (ER-alpha) signaling pathway - cell viability counter screen (AID 743074);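 also: HEK293 cells carrying ER-alpha-UAS-bla reporter stimulated with 17beta-estradiol; % is scaled to controls: 0 for no effect and ±100 for the full control effect; nearly all actives have a fitted effect of over 45% in size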
Details: ERalpha-bla HEK293 viability, CellTiter-Glo luminescence, 18 h; series mostly up to 69.4 µM
Records with an inconclusive call do not appear. Active and inactive are the calls of the source. Calls come from the whole dose curve.
assay-readout: activity, negative = cytotoxicity

Sample records with activity, negative = cytotoxicity:
CCCCCCCCCCCCCCCCCCCl: -22.2% [at 6.72 µM] (inactive)
COc1cccc([C@H](O)C2CCN(CCc3ccc(F)cc3)CC2)c1OC: inactive
O=C1c2ccccc2C(=O)c2c1ccc(O)c2O: inactive
C1=COCCC1: inactive
COC=O: 7.46% [at 6.72 µM] (inactive)
N#C[C@@H]1CC(F)(F)CN1C(=O)CNC1CC2CCC(C1)N2c1ncccn1 (stereo not given in full): inactive

Find the recorded activity, negative = cytotoxicity belonging to O=C(OCCOCCOCCOC(=O)c1ccccc1)c1ccccc1 and report it.
inactive

Moving on to NC(=O)c1ccccc1C(N)=O
inactive

Moving on to O=C(Cl)c1cc(Cl)cc(Cl)c1
inactive

Moving on to CCN(CCCCOC(=O)c1ccc(OC)c(OC)c1)C(C)Cc1ccc(OC)cc1 (stereo not given)
inactive

Moving on to CCCCC(CC)COCCC#N (stereo not given)
inactive

Moving on to C[C@H]1C[C@H]2[C@@H]3CCC4=CC(=O)C=C[C@]4(C)[C@@]3(F)[C@@H](O)C[C@]2(C)[C@@]1(O)C(=O)COP(=O)(O)O
inactive

Moving on to O=P(c1ccccc1)(c1ccccc1)c1ccccc1
inactive

Moving on to CC/C=C\CCO
inactive

Moving on to O=C(Cl)c1ccc(F)c(Cl)c1
inactive

====

Experiment: qHTS assay to identify small molecule antagonists of the sonic hedgehog signaling (Shh) pathway - cell viability counter screen (AID 1259367); also: % is scaled to controls: 0 for no effect and ±100 for the full control effect; nearly all actives have a fitted effect of over 55% in size
Details: NIH/3T3 Gli1-Luc viability, CellTiter-Fluor, 24 h; series mostly up to 92.4 µM
Description: National Center for Advancing Translational Sciences [NCATS] NIH Chemical Genomics Center [NCGC] U.S. Environmental Protection Agency [EPA] National Institutes of Environmental Health Sciences [NIEHS] National Toxicology Program [NTP] U.S. Food and Drug Administration [FDA] The sonic hedgehog (Shh) pathway is essential for normal embryonic development. Dysregulation of the Shh pathway can cause severe developmental defects in organs. […]
Results filed as inconclusive are left out. Activity calls are given as the source filed them. Calls come from the whole dose curve; as a rule, active = well fitted cell-killing curve with a large enough effect in the repeat runs; inconclusive = weak or mixed curves, or effect the other way; inactive = no such curve, though single readings can be large or run the other way.
assay-readout: Potency

Sample records with Potency:
COc1cc(CNC(=O)CCCC/C=C/C(C)C)ccc1O: inactive
CC[C@H](NC(C)C)[C@H](O)c1ccc(O)c2[nH]c(=O)ccc12: inactive
Cc1nc2sccn2c(=O)c1CCN1CCC(=C(c2ccc(F)cc2)c2ccc(F)cc2)CC1: inactive
CCCCCCCCCCCC(=O)OCC: inactive
CC(C)CC(C)(C)C: inactive

Find the recorded Potency belonging to Nc1ccc(-c2ccc(F)cc2)cc1 and report it.
inactive

Moving on to NC(=O)c1cc[n+](CC2=C(C(=O)[O-])N3C(=O)[C@@H](NC(=O)Cc4cccs4)[C@H]3SC2)cc1
inactive

Moving on to CC(C(=O)O)c1ccc2c(c1)Cc1cccnc1O2 (stereo not drawn)
inactive

Moving on to O=C(O)c1cccc(C(=O)O)c1C(=O)O
inactive

Moving on to CC(=O)c1cccnc1
inactive

Moving on to CCOCCn1c(N2CCCN(C)CC2)nc2ccccc21
inactive

Moving on to CO[C@@H]1[C@@H](O[C@@H]2O[C@H](C)[C@@H](O[C@H]3C[C@@](C)(O)[C@@H](O)[C@H](C)O3)[C@H](N(C)C)[C@H]2O)[C@@H](CC=O)C[C@@H](C)[C@@H](O[C@@H]2CC[C@H](N(C)C)[C@@H](C)O2)/C=C/C=C/C[C@@H](C)OC(=O)C[C@H]1OC(C)=O
inactive

Moving on to Cc1ccc(NC=O)c(C)c1
inactive

Moving on to O=C(O)c1cccnc1Nc1cccc(C(F)(F)F)c1
inactive

Moving on to CCCOC(C)=O
inactive

Moving on to CC(=O)S[C@H](C(=O)N[C@H]1Cc2ccccc2[C@H]2CCC[C@@H](C(=O)O)N2C1=O)C(C)C
inactive

Moving on to CC(C)(C)NCC(O)COc1ccc(NC(=O)NC2CCCCC2)cc1 (stereo not drawn)
inactive

Moving on to C[C@H](CN1CCCC1)C(=O)c1ccc(C(F)(F)F)cc1
inactive

Moving on to O=C1c2ccccc2C(=O)C1c1ccc2ccccc2n1
inactive

====

Assay: qHTS RealTime-Glo MT Cell Viability Assay in HEK293 cells - 40 hour (AID 1224874); also: % is scaled to controls: 0 for no effect and ±100 for the full control effect; nearly all actives have a fitted effect of over 50% in size
Conditions: RealTime-Glo luminescence; active compounds read low
Inconclusive results are not listed.
assay-readout: max response (%)
Your answer is read as %, so omit the unit and give the number.

CC(C)CCCCCOC(=O)CS: 4.02
C=CC(=O)NC(C)(C)C: 1.33
CC(COc1ccccc1)NC(C)C(O)c1ccc(O)cc1 (stereo not drawn): -6.13

Find the recorded max response belonging to FC(F)(Cl)C(F)(Cl)Cl and report it.
10.2

Moving on to C=C[Si](OCC)(OCC)OCC
11.4

Moving on to COc1ccc(/C=C/S(=O)(=O)NC(=O)c2ccc(C)cc2Cl)cc1
-7.95

====

Target: Cytochrome P450 2D6 (Homo sapiens)
Test: Cytochrome P450 Family 2 Subfamily D Member 6 (CYP2D6) small molecule antagonists: luciferase reporter qHTS assay (AID 1671196); also: nearly all actives have a fitted effect of over 50% in size
Conditions: P450-Glo CYP2D6 enzyme assay, luciferin luminescence, 1 h; series mostly up to 115 µM
Results filed as inconclusive are left out. Active and inactive are the calls of the source. The call rests on the fitted dose curve; in most records, active means well fitted inhibition curve with a large enough effect in the repeat runs; inconclusive means weak or mixed curves; inactive means no such curve, though single readings can be large or run the other way.
Select the matching outcome among active, inactive

Please share the test call associated with O=C1CCCN1CCO .
inactive

Moving on to O=c1c2ccccc2oc2ccccc12
inactive

Moving on to O=C(O)COCC(=O)O
inactive

Moving on to CCC(=O)O[C@]1(C(=O)COC)[C@@H](C)C[C@H]2[C@@H]3CCC4=CC(=O)C=C[C@]4(C)C3(F)[C@@H](O)C[C@@]21C (some centres not stated)
active

Moving on to O=C(O)c1ccccc1[N+](=O)[O-]
inactive

Moving on to CCN(CC)CC(=O)OCC(=O)[C@@]1(O)CC[C@H]2[C@@H]3CCC4=CC(=O)CC[C@]4(C)[C@H]3[C@@H](O)C[C@@]21C
inactive

Moving on to O=C(O)c1ccc(O)c(O)c1
inactive

Moving on to CCCCCCCCCCCCN1CCOCC1
inactive

Moving on to C=CC(O)CCCCC (configuration not stated)
inactive

Moving on to CC/C=C/CCO
inactive

Moving on to O=C(O)c1ccccc1-n1cc(C(=O)O)c(=O)c2cc(Nc3c(F)cc(F)cc3Cl)c(Cl)cc21
inactive

Moving on to Cc1cc(C)n(CO)n1
inactive

Moving on to c1ccc(CCNc2nc(-c3ccccc3)cs2)cc1
active

Moving on to C[C@H]1C[C@H]2[C@@H]3CCC4=CC(=O)C=C[C@]4(C)[C@@]3(F)[C@@H](O)C[C@]2(C)[C@@]1(O)C(=O)COP(=O)(O)O
inactive

Moving on to CC1(C)C(=O)NC(=O)N1CO
inactive

Moving on to CC(C)=CCC[C@H](C)CCO
inactive

Moving on to CCCCCCCCCC(C)C=O (configuration not stated)
inactive

Moving on to CCCOC(C)=O
inactive

Moving on to NC(=O)c1ccccc1C(N)=O
active

Moving on to CC(CN=Cc1ccccc1O)N=Cc1ccccc1O (configuration not stated)
active

Moving on to C=CCCC
inactive

Moving on to CCCCOC(=O)CC#N
active
